From: paper PMC8444450

# target.of.assay: SARS-CoV-2 spike receptor-binding domain (amino acids 333–529), bacteria-expressed and refolded (SARS-CoV-2, UniProt P0DTC2 333-529)
# assay: SPR
Please go through the items and note down their koff.
Hi! Could you send only the number? It should be in s⁻¹, unit omitted.

Measured koff of sybody Sb68 (VHH) VHH: QVQLVESGGGSVQAGGSLRLSCAASGSISSITYLGWFRQAPGKEREGVAALITVNGHTYYADSVKGRFTVSLDNAKNTVYLQMNSLKPEDTALYYCAAAAWGYAWPLHQDDYWYWGQGTQVTVSA : 0.023

Per the records, this binder ( sybody Sb15 (VHH) VHH: QVQLVESGGGLVQAGGSLRLSCAASGFPVKNFEMEWYRKAPGKEREWVAAIQSGGVETYYADSVKGRFTISRDNAKNTVYLQMNSLKPEDTAVYYCFVYVGRSYIGQGTQVTVS ) has koff equal to 0.011

Input sybody Sb16 (VHH) VHH: QVQLVESGGGLVQAGGSLRLSCAASGFPVAYKTMWWYRQAPGKEREWVAAIESYGIKWTRYADSVKGRFTISRDNAKNTVYLQMNSLKPEDTAVYYCIVWVGAQYHGQGTQVTVSA . Output koff: 0.02

Record sybody Sb14 (VHH) VHH: QVQLVESGGGLVQAGGSLRLSCAASGFPVQAREMEWYRQAPGKEREWVAAIKSTGTYTAYAYSVKGRFTISRDNAKNTVYLQMNSLKPEDTAVYYCYVYVGSSYIGQGTQVTVSA . Reported koff: 0.007
